biological target: human CD3 (huCD3ed) (human) (UniProt P07766); assay: Biacore SPR, bispecific hIgG2dA format, 37 C; CD3 antigen not given
Sequence (P07766 23-126, chain 1 of 2): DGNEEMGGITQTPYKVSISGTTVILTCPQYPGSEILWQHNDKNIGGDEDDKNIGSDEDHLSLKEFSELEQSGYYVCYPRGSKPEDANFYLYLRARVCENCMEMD
Sequence (P04234 22-105, chain 2 of 2, further chain): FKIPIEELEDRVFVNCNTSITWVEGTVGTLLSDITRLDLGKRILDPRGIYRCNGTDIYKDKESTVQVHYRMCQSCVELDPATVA
Measure name: t½ (s)
Kindly provide the numeric value in s only, without the unit symbol.

h25A8-B8_Ep (bispecific antibody, part only; not given: anti-EpCam arm, constant regions, V domains shown, not shown: another chain or arm of the molecule; a dimerising Fc or GST; small tags and cut ends) VH: EVQLVESGGGLVKPGGSLRLSCAASGFTFSTYAMNWVRQAPGKGLEWVGRIRSKINNYATYYAESVKGRFTISRDDSKNTLYLQMNSLKTEDTAVYYCVRHETLRSGISWFASWGQGTLVTVSS VL: QAVVTQEPSLTVSPGGTVTLTCRSSTGAVTTSNYANWVQQKPGQAPRGLIGGTNTRAPGTPARFSGSLLGGKAALTLSGAQPEDEAEYYCVLWYNNHWVFGGGTKLTVL    31.2

Shift focus to the following entry.
Query (binder): h2B4-yaesTK_Ep (bispecific antibody, part only; not given: anti-EpCam arm, constant regions, V domains shown, not shown: another chain or arm of the molecule; a dimerising Fc or GST; small tags and cut ends) VH: EVQLVESGGGLVQPGGSLRLSCAASGFTFSDYYMTWVRQAPGKGLEWVAFIRNRARGYTSDYAESVKGRFTISRDNAKNSLYLQMNSLRAEDTAVYYCARDRPSYYVLDYWGQGTTVTVSS VL: DIVMTQSPDSLAVSLGERATINCKSSQSLFNVRSRKNYLAWYQQKPGQPPKLLISWASTRESGVPDRFSGSGSGTDFTLTISSLQAEDVAVYYCKQSYDLFTFGSGTKLEIK ; field requested: t½ 27

Hey, just so you know, these numbers are from patent US20240018252A1.
